From: patent US20180244611A1

biological target: F508delCFTR (Homo sapiens, UniProt P13569, DEL508-508); construct: expressed in transfected cells; host or cells: CFBE41o- human lung-derived epithelial cells (CFBE41o-F508delCFTR-HRP), doxycycline-inducible; assay: Cell Surface Expression-Horse Radish Peroxidase (CSE-HRP) assay, test compound with co-corrector; type: cell-based; conditions: maximum at any tested concentration, normalized to positive control, with 2 μM co-corrector;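 as to Maximum % activity (with co-corrector): percent of 2 µM positive control corrector over DMSO; co-corrector is that same compound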
Sequence (P13569 with tags, fused parts or gaps DEL508-508): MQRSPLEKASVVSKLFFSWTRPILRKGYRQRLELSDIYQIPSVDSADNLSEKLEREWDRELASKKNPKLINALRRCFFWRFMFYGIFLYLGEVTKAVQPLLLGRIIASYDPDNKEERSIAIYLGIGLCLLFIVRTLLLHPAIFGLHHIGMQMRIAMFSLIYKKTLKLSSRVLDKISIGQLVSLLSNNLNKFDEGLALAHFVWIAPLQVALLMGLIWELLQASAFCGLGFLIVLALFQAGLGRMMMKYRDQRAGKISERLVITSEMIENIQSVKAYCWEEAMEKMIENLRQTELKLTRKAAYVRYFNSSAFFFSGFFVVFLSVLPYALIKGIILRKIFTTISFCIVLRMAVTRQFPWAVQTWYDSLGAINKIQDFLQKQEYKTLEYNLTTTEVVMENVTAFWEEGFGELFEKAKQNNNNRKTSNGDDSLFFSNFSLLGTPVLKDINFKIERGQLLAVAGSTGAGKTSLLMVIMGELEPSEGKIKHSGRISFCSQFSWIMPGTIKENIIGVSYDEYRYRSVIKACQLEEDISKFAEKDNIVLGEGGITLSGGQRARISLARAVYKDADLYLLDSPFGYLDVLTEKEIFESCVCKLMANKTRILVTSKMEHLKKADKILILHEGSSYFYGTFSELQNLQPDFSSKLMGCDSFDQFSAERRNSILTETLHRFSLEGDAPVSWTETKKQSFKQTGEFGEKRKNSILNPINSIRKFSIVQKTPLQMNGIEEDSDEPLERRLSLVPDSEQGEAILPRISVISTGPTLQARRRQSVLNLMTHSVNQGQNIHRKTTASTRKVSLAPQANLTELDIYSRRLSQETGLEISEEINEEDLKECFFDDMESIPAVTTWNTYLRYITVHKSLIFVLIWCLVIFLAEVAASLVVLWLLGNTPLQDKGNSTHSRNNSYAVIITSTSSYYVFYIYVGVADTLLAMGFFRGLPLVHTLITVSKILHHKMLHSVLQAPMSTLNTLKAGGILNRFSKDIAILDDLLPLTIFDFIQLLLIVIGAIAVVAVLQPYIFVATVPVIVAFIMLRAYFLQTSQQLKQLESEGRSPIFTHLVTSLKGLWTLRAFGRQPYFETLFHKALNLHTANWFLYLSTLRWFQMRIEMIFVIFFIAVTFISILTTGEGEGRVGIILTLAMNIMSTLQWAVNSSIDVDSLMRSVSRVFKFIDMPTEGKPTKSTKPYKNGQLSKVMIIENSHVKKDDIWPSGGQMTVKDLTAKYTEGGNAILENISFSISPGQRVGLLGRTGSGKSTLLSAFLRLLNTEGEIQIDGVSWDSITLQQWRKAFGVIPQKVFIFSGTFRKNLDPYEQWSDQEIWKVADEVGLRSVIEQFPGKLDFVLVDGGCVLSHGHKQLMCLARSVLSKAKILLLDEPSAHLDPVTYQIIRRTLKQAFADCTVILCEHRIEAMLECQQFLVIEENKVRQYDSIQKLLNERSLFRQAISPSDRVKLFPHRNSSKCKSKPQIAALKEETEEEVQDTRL
assay_readout: Maximum % activity (with co-corrector)

Q) Tell me its Maximum % activity (with co-corrector) given CCC1(C(=O)NS(=O)(=O)c2cccc3ccccc23)CCCc2c(OC)cccc21 (stereo not shown) as the entry.
A) +++ (≥350)

Q) Tell me its Maximum % activity (with co-corrector) given COc1ccc(OC)c2c1CC[C@H]2C(=O)NS(=O)(=O)c1cccc2ccccc12 as the entry.
A) +++ (≥350)

Q) Tell me its Maximum % activity (with co-corrector) given CCOc1ccc2c(S(=O)(=O)NC(=O)C3CCc4c(Br)ccc(OC)c43)cccc2n1 (stereo not shown) as the entry.
A) +++ (≥350)

###

biological target: F508delCFTR (Homo sapiens, UniProt P13569, DEL508-508); construct: expressed in transfected cells; host or cells: CFBE41o- human lung-derived epithelial cells (CFBE41o-F508delCFTR-HRP), doxycycline-inducible; assay: Cell Surface Expression-Horse Radish Peroxidase (CSE-HRP) assay, test compound with co-corrector; assay type: cell-based; settings: with 2 μM co-corrector
EC50 values, listed per item

Solved cases below.
Q) Report value only: EC50, F508delCFTR (Homo sapiens, UniProt P13569, DEL508-508), Cc1ccccc1S(=O)(=O)NC(=O)C1CCCc2ccccc21 (stereo not shown)
A) 3 to 10 µM

Q) Report value only: EC50, F508delCFTR (Homo sapiens, UniProt P13569, DEL508-508), COc1cccc2c1CCC2C(=O)NS(=O)(=O)c1cccnc1 (stereo not shown)
A) ≥ 10 µM

Q) Report value only: EC50, F508delCFTR (Homo sapiens, UniProt P13569, DEL508-508), CCCC(=O)Nc1ccc(S(=O)(=O)NC(=O)C2CCc3c(OC)cccc32)cc1 (stereo not shown)
A) ≥ 10 µM

Turning to the following molecule.
Q) Report value only: EC50, F508delCFTR (Homo sapiens, UniProt P13569, DEL508-508), COc1ccc(Br)c2c1C(C(=O)NS(=O)(=O)c1cccc3cnn(C)c13)CC2 (stereo not shown)
A) < 3 µM

###

Biological target: F508delCFTR (Homo sapiens, UniProt P13569, DEL508-508)
Construct: expressed in transfected cells; host or cells: CFBE41o- human lung-derived epithelial cells (CFBE41o-F508delCFTR-HRP), doxycycline-inducible
Test: Cell Surface Expression-Horse Radish Peroxidase (CSE-HRP) assay, test compound without co-corrector;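 also: percent of on-plate 2 µM positive control corrector response over DMSO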
Type: cell-based
Settings: maximum at any tested concentration, normalized to positive control, without co-corrector
Description: Cell Surface Expression-Horse Radish Peroxidase (CSE-HRP) Assay […] The % activity measured at each of the 8 test concentrations of the test compound added either without or with a co-corrector (2 μM of 3-[(2R,4R)-4-({[1-(2,2-difluoro-1,3-benzodioxol-5-yl)cyclopropyl]carbonyl}amino)-7-methoxy-3,4-dihydro-2H-chromen-2-yl]benzoic acid) was normalized to the on-plate positive control using the following formulae: […]
assay_readout: Emax

Solved cases below.
Q) Tell me its Emax given COc1ccc(Br)c2c1CCCC2C(=O)NS(=O)(=O)c1cccc2ccccc12 (stereo not drawn) [Example I-15] as the entry.
A) ≥ 150%

Q) Tell me its Emax given COc1cccc2c1CCCC2C(=O)NS(=O)(=O)c1cccc2cccnc12 (stereo not drawn) [II-43] as the entry.
A) 50 to 150%

Turning to the following compound.
Q) Tell me its Emax given O=C(NS(=O)(=O)c1cccc2ccccc12)C1CCc2c(Br)cccc21 (stereo not drawn) [II-75] as the entry.
A) ≥ 150%
